target: GT198 (Homo sapiens); test: In vitro DNA-binding assay of GT198 (biotinylated DNA, chemiluminescence); conditions: Table 1; drugs not measured with IC50 are shown as active or inactive
Sequence (Q9P2W1 1-180): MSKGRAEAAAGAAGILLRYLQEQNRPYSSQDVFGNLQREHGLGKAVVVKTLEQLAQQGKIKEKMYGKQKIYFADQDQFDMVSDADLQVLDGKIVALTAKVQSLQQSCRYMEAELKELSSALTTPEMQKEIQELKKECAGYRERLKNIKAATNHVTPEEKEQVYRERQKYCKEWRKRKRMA
READOUT_TYPE: Efficacy (active or inactive)

Recorded Efficacy (active or inactive), per entry:
- COMPOUND: "CC(=O)O[C@@]12CO[C@@H]1C[C@H](O)[C@@]1(C)C(=O)[C@H](O)C3=C(C)[C@@H](OC(=O)[C@H](O)[C@@H](NC(=O)OC(C)(C)C)c4ccccc4)C[C@@](O)([C@@H](OC(=O)c4ccccc4)[C@H]21)C3(C)C [Docetaxel]"
  READOUT_TYPE: "Efficacy (active or inactive)"
  EXPERIMENTAL_VALUE: "Active"
- COMPOUND: "N.N.[Cl][Pt][Cl] [Cisplatin]"
  READOUT_TYPE: "Efficacy (active or inactive)"
  EXPERIMENTAL_VALUE: "Inactive"
- COMPOUND: "CO[C@H]1C(=O)[C@]2(C)[C@@H](OC)C[C@H]3OC[C@@]3(OC(C)=O)[C@H]2[C@H](OC(=O)c2ccccc2)[C@]2(O)C[C@H](OC(=O)[C@H](O)[C@@H](NC(=O)OC(C)(C)C)c3ccccc3)C(C)=C1C2(C)C [Cabazitaxel]"
  READOUT_TYPE: "Efficacy (active or inactive)"
  EXPERIMENTAL_VALUE: "Inactive"
- COMPOUND: "O=c1[nH]c(=O)n([C@H]2C[C@H](O)[C@@H](CO)O2)cc1C(F)(F)F [Trifluridine]"
  READOUT_TYPE: "Efficacy (active or inactive)"
  EXPERIMENTAL_VALUE: "Active"
- COMPOUND: "N.N.O=C([O-])C1(C(=O)[O-])CCC1.[Pt+2] [Carboplatin]"
  READOUT_TYPE: "Efficacy (active or inactive)"
  EXPERIMENTAL_VALUE: "Inactive"

Now look at this one.
Ask: Given CC(C)C[C@H](NC(=O)[C@H](CCc1ccccc1)NC(=O)CN1CCOCC1)C(=O)N[C@@H](Cc1ccccc1)C(=O)N[C@@H](CC(C)C)C(=O)[C@@]1(C)CO1 [Carfilzomib] , state its recorded Efficacy (active or inactive).
Reply: Active
